biological target: E. coli ligase (D-Ala-D-Ala ligase) (Escherichia coli, UniProt P07862); assay: D-Ala-D-Ala ligase Ki determination (PK/LDH coupled assay), E. coli ligase; type: biochemical; conditions: Ki against the ligase isolated from E. coli
quantity: pKi
// field semantics: pKi = negative decimal log of concentration (mol/L)

Query pKi on E. coli ligase (D-Ala-D-Ala ligase) (Escherichia coli, UniProt P07862) for CCOc1ccc2ccccc2c1CN(CCCCN)c1ncc2c(N)nc(N)nc2n1 6.99

* * *

biological target: E. coli ligase (D-Ala-D-Ala ligase) (Escherichia coli); assay: D-Ala-D-Ala ligase Ki determination (PK/LDH coupled assay), E. coli ligase; assay type: biochemical; details: E. coli ligase potency
quantity: pKi
// field semantics: pKi = negative decimal log of concentration (mol/L)

I have this compound here, CCOc1ccc2ccccc2c1CN(CC(O)C(=O)O)c1ncc2c(N)nc(N)nc2n1 (stereo not shown) , and I need its recorded pKi. 6.84
